target-entity: T1, P985_AMBPA (Amblyomma parvum, UniProt A0A023FT45 25-132)
T1 construct: Tick evasin; also called Evasin
T1 sequence: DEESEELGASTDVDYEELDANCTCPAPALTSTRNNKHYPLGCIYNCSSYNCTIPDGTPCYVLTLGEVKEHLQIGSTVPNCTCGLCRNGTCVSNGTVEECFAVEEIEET
assay-notes: microscale thermophoresis, AlexaFluor 647 labelled chemokine
endpoint-label: pKd
Bear in mind: pKd is minus log10 of a mol/L concentration; give just that figure.

## Task Please report the recorded pKd for CCL5_HUMAN (ligand, Biotinylated (detected with streptavidin-Alexa647) in yeast display; AlexaFluor 647 labelled (Almac) in thermophoresis) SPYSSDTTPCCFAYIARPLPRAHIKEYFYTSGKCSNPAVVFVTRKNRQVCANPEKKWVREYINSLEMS .
## Result 7.32
